In this section we review reported pKi values for a set of compounds.
Target: human 5-HT1A receptor (Homo sapiens)
Sequence (P08908 1-422): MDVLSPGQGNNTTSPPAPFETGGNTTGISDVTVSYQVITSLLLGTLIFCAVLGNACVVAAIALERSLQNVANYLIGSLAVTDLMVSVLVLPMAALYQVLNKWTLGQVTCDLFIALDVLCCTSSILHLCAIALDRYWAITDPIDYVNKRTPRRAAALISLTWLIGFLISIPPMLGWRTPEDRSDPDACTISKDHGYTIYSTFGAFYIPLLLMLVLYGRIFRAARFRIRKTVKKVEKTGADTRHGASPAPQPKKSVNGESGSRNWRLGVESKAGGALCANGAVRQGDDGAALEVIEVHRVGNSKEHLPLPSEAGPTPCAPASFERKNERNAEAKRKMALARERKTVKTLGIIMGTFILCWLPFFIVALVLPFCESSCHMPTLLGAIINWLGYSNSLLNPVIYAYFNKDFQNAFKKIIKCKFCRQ
Quick note: pKi values are minus log10 of concentrations in mol/L.

CCN1CC(CNCCCc2c[nH]c3ccc(F)cc23)Oc2ccccc21 (stereo not drawn); 7.82
c1ccc(CN2CC(CNCCCc3c[nH]c4ccccc34)Oc3ccccc32)cc1 (stereo not drawn); 8.11
Fc1ccc2[nH]cc(CCCNCC3CNc4ccccc4O3)c2c1 (stereo not drawn); 7.96
CCCN1CC(CNCCCc2c[nH]c3ccc(F)cc23)Oc2ccccc21 (stereo not drawn); 7.77
c1ccc2c(c1)NCC(CNCCCc1c[nH]c3ccccc13)O2 (stereo not drawn); 8.16

// query Dear colleague, I am looking for the recorded pKi of the following compound: CC(C)CN1CC(CNCCCc2c[nH]c3ccc(F)cc23)Oc2ccccc21 (stereo not drawn)
// result 8.09

// query Dear colleague, I am looking for the recorded pKi of the following compound: CC(C)N1CC(CNCCCc2c[nH]c3ccc(F)cc23)Oc2ccccc21 (stereo not drawn)
// result 8.55

// query Dear colleague, I am looking for the recorded pKi of the following compound: CN1CC(CNCCCc2c[nH]c3ccc(F)cc23)Oc2cc(Cl)ccc21 (stereo not drawn)
// result 7.12

// query Dear colleague, I am looking for the recorded pKi of the following compound: c1ccc(N2CC(CNCCCc3c[nH]c4ccccc34)Oc3ccccc32)cc1 (stereo not drawn)
// result 7.52

// query Dear colleague, I am looking for the recorded pKi of the following compound: COc1ccc2c(c1)OC(CNCCCc1c[nH]c3ccc(F)cc13)CN2 (stereo not drawn)
// result 6.99

// query Dear colleague, I am looking for the recorded pKi of the following compound: CN1CC(CNCCCc2c[nH]c3ccc(F)cc23)Oc2ccccc21 (stereo not drawn)
// result 8.07

// query Dear colleague, I am looking for the recorded pKi of the following compound: CN1CC(CNCCCc2c[nH]c3ccccc23)Oc2ccccc21 (stereo not drawn)
// result 8.23
